Field: log10 AC50. Provide a value for each of the molecules that follow.
molecular target: APOL1 G2 (Homo sapiens, UniProt O14791, DEL388-389); construct: expressed in transfected cells; host or cells: HEK293 T-REx clonal lines: HEK T-REx/GCaMP6f/APOL1 G2 K6.3 in A1, HEK293/T-REx APOL1 G2/clone #2 in A2; experiment: APOL1 calcium transport inhibition assay (GCaMP6f calcium influx, FLIPR) in HEK T-REx/GCaMP6f/APOL1 G2 K6.3 cells; format: cell-based; conditions: inhibition of APOL1-mediated calcium influx; geometric mean of at least 2 assay runs, † = single assay run (technical duplicate)
Hey, these are logged values: log10 of AC50, nM being the unit before logging.

### Prompt Item under review: `CS(=O)(=O)CCCS(=O)(=O)c1ccc(OC[C@@H]2CN(CCc3cccc(Cl)c3)CCN2)cc1` . Reported log10 AC50?
### Response 2.33

### Prompt Item under review: C[C@@H]1C[C@H](COc2ccc(S(C)(=O)=O)cc2)CN1CC(O)c1cccc(C#N)c1 (single isomer, unassigned) [Compound 116] . Reported log10 AC50?
### Response 2.57

### Prompt Item under review: CN(c1ccc(OC[C@H](O)CN2CCC(c3cccc(Cl)c3)C2(C)C)cc1)S(C)(=O)=O (stereo partly shown) [Compound 71] . Reported log10 AC50?
### Response 2.97

### Prompt Item under review: CC1CC(COc2ccc(S(C)(=O)=O)cc2)CN1CCc1cccc(Cl)c1 (single isomer, unassigned) [Compound 58] . Reported log10 AC50?
### Response 1.86

### Prompt Item under review: CN(c1ccc(OC[C@@H](O)CN2CCOC(c3cccc(Cl)c3)C2)cc1)S(C)(=O)=O (single isomer, unassigned) [Compound 82] . Reported log10 AC50?
### Response 3.64

* * *

target: APOL1 G2 (Homo sapiens, UniProt O14791, DEL388-389); construct: expressed in transfected cells; host or cells: HEK293 T-REx clonal lines: HEK T-REx/GCaMP6f/APOL1 G2 K6.3 in A1, HEK293/T-REx APOL1 G2/clone #2 in A2; assay: APOL1 calcium transport inhibition assay (GCaMP6f calcium influx, FLIPR) in HEK T-REx/GCaMP6f/APOL1 G2 K6.3 cells; format: cell-based; conditions: inhibition of APOL1-mediated calcium influx; geometric mean of at least 2 assay runs, † = single assay run (technical duplicate)
Measured Metric: AC50

### Prompt Item under review: COC1CCN(CCc2cccc(Cl)c2)CC1COc1ccc(S(C)(=O)=O)cc1 (single isomer, unassigned) [Compound 38] . Reported AC50?
### Response < 253 nM

### Prompt Item under review: CN(c1ccc(OCC(C)(O)CNCCc2cccc(Cl)c2)cc1)S(C)(=O)=O (single isomer, unassigned) [Compound 104] . Reported AC50?
### Response < 382 nM

### Prompt Item under review: CCN(CCc1cccc(Cl)c1)C[C@H](O)COc1ccc(N(C)S(C)(=O)=O)cc1 [Compound 60] . Reported AC50?
### Response < 267 nM

### Prompt Item under review: COCCS(=O)(=O)c1ccc(OC[C@H]2CN(CCc3cccc(Cl)c3)C[C@@H]2C)cc1 (racemic) [Compound 109] . Reported AC50?
### Response < 105 nM

### Prompt Item under review: C[C@@H]1CN(CCc2cc(F)cc(Cl)c2)C[C@H]1COc1ccc(S(C)(=O)=O)cc1 [Compound 181] . Reported AC50?
### Response < 96.1 nM

* * *

target: APOL1 G2 (Homo sapiens, UniProt O14791, DEL388-389); test: Rescue of HEK293 cell death caused by overexpression of APOL1 (CellTiter-Glo luminescence), HEK293/T-REx APOL1 G2/clone #2; settings: reversal of cell death caused by overexpression of APOL1; geometric mean of at least 2 assay runs, † = single assay run (technical duplicate)
Field: EC50. Provide a value for each of the compounds that follow.
Respond with the bare value in nM.

### Prompt Item under review: CN(c1ccc(OCC2CN(CCc3cccc(Cl)c3)CCCO2)cc1)S(C)(=O)=O (centres unmarked) [Compound 10] . Reported EC50?
### Response 2450

### Prompt Item under review: CC1CC(COc2ccc(S(C)(=O)=O)cc2)CN1CCc1cccc(Cl)c1 (single isomer, unassigned) [Compound 56] . Reported EC50?
### Response 1680

### Prompt Item under review: C[C@@H]1CN(CCc2cccc(Cl)c2)C[C@H]1COc1ccc(S(C)(=O)=O)cc1 (single isomer, unassigned) [Compound 155] . Reported EC50?
### Response 2490

### Prompt Item under review: CC1CC(COc2ccc(S(C)(=O)=O)cc2)CN1CCc1cccc(C#N)c1 (single isomer, unassigned) [Compound 138] . Reported EC50?
### Response 1970

### Prompt Item under review: C[C@H]1CN(CCc2cccc(Cl)c2)C[C@@H]1COc1ccc(S(=O)(=O)CCCS(C)(=O)=O)cc1 (racemic) [Compound 175] . Reported EC50?
### Response 143

* * *

target: APOL1 G2 (Homo sapiens, UniProt O14791, DEL388-389); construct: expressed in transfected cells; host or cells: HEK293 T-REx clonal lines: HEK T-REx/GCaMP6f/APOL1 G2 K6.3 in A1, HEK293/T-REx APOL1 G2/clone #2 in A2; experiment: Rescue of HEK293 cell death caused by overexpression of APOL1 (CellTiter-Glo luminescence), HEK293/T-REx APOL1 G2/clone #2; assay type: cell-based; conditions: reversal of cell death caused by overexpression of APOL1; geometric mean of at least 2 assay runs, † = single assay run (technical duplicate)
Field: pEC50. Provide a value for each of the compounds that follow.
Scale: pEC50 equals -log10([C]), with [C] in mol/L.

### Prompt Item under review: CC1CNC(COc2ccc(S(C)(=O)=O)cc2)CN1CCc1cccc(Cl)c1 (single isomer, unassigned) [Compound 213] . Reported pEC50?
### Response 6.02

### Prompt Item under review: C[C@@H]1CN(CCc2cccc(Cl)c2)C[C@@H]1COc1ccc(S(C)(=O)=O)cc1 (racemic) [Compound 150] . Reported pEC50?
### Response 5.83

### Prompt Item under review: `CS(=O)(=O)c1ccc(OC[C@@H]2CN(CCc3cc(C#N)cc(C(F)(F)F)c3)CCN2)cc1` . Reported pEC50?
### Response 6.11

* * *

Target: APOL1 G2 (Homo sapiens, UniProt O14791, DEL388-389)
Construct: expressed in transfected cells; host or cells: HEK293 T-REx clonal lines: HEK T-REx/GCaMP6f/APOL1 G2 K6.3 in A1, HEK293/T-REx APOL1 G2/clone #2 in A2
Sequence (O14791 with tags, fused parts or gaps DEL388-389): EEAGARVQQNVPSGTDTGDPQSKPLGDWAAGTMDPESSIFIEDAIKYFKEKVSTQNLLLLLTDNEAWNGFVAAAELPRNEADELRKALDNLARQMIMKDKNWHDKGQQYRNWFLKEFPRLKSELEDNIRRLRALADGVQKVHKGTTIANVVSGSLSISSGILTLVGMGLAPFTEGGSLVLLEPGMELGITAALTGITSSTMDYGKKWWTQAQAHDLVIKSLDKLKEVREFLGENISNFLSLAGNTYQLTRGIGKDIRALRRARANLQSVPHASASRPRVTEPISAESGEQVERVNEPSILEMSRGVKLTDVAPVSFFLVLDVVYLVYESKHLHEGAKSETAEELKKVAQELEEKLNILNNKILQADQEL
Assay: APOL1 calcium transport inhibition assay (GCaMP6f calcium influx, FLIPR) in HEK T-REx/GCaMP6f/APOL1 G2 K6.3 cells
Format: cell-based
Conditions: inhibition of APOL1-mediated calcium influx; geometric mean of at least 2 assay runs, † = single assay run (technical duplicate)
Measured Metric: AC50 (nM)
Respond with the bare value in nM.

### Prompt What measured AC50 is associated with CN(c1ccc(OC[C@H](O)CN2CCOC(c3cccc(Cl)c3)C2)cc1)S(C)(=O)=O (single isomer, unassigned) [Compound 85] on APOL1 G2 (Homo sapiens, UniProt O14791, DEL388-389)?
### Response 8480

### Prompt What measured AC50 is associated with `C[C@@H]1CN(CCc2cccc(C#N)c2)C[C@H]1COc1ccc(S(=O)(=O)CCCS(C)(=O)=O)cc1` on APOL1 G2 (Homo sapiens, UniProt O14791, DEL388-389)?
### Response 179

### Prompt What measured AC50 is associated with CS(=O)(=O)c1ccc(OCC2CN(CCc3cccc(Cl)c3)CCC2O)cc1 (single isomer, unassigned) [Compound 31] on APOL1 G2 (Homo sapiens, UniProt O14791, DEL388-389)?
### Response 1020

### Prompt What measured AC50 is associated with `Cc1cc(C#N)cc(CCN2C[C@@H](COc3ccc(S(C)(=O)=O)cc3)[C@H](C)C2)c1` on APOL1 G2 (Homo sapiens, UniProt O14791, DEL388-389)?
### Response 197

### Prompt What measured AC50 is associated with C[C@@H]1C[C@H](COc2ccc(S(C)(=O)=O)cc2)CN1CC(O)c1cc(Cl)cc(C#N)c1 (single isomer, unassigned) [Compound 115] on APOL1 G2 (Homo sapiens, UniProt O14791, DEL388-389)?
### Response 756

### Prompt What measured AC50 is associated with CN(c1ccc(OC[C@@H](O)CN2CCC(c3cccc(Cl)c3)C2)cc1)S(C)(=O)=O (single isomer, unassigned) [Compound 76] on APOL1 G2 (Homo sapiens, UniProt O14791, DEL388-389)?
### Response 2830

### Prompt What measured AC50 is associated with `CS(=O)(=O)c1ccc(OC[C@H]2CCN(CCc3cccc(Cl)c3)C2)cc1` on APOL1 G2 (Homo sapiens, UniProt O14791, DEL388-389)?
### Response 727

### Prompt What measured AC50 is associated with `CN(c1ccc(OC[C@@H](O)CN(CCc2cccc(Cl)c2)CC2CC2)cc1)S(C)(=O)=O` on APOL1 G2 (Homo sapiens, UniProt O14791, DEL388-389)?
### Response 245

### Prompt What measured AC50 is associated with `C[C@@H]1CN(CCc2cc(Cl)cc(C#N)c2)C[C@H]1COc1ccc(S(=O)(=O)C(C)(C)CO)cc1` on APOL1 G2 (Homo sapiens, UniProt O14791, DEL388-389)?
### Response 256

### Prompt What measured AC50 is associated with CN=S(C)(=O)c1ccc(OC[C@H]2C[C@@H](C)N(CCc3cccc(C#N)c3)C2)cc1 (stereo partly shown) [Compound 157] on APOL1 G2 (Homo sapiens, UniProt O14791, DEL388-389)?
### Response 441

### Prompt What measured AC50 is associated with COC1CCN(CCc2cccc(Cl)c2)CC1COc1ccc(S(C)(=O)=O)cc1 (single isomer, unassigned) [Compound 37] on APOL1 G2 (Homo sapiens, UniProt O14791, DEL388-389)?
### Response 3840

### Prompt What measured AC50 is associated with `C[C@@H]1C[C@H](COc2ccc(S(=O)(=O)CCCS(C)(=O)=O)cc2)CN1CCc1cccc(C#N)c1` on APOL1 G2 (Homo sapiens, UniProt O14791, DEL388-389)?
### Response 233
